Hey, just so you know, these numbers are from patent US20240059693A1.

varicella zoster virus DNA polymerase (Varicella-zoster virus, UniProt P09252): reported IC50 for various compounds.
Sequence (P09252 whole entry): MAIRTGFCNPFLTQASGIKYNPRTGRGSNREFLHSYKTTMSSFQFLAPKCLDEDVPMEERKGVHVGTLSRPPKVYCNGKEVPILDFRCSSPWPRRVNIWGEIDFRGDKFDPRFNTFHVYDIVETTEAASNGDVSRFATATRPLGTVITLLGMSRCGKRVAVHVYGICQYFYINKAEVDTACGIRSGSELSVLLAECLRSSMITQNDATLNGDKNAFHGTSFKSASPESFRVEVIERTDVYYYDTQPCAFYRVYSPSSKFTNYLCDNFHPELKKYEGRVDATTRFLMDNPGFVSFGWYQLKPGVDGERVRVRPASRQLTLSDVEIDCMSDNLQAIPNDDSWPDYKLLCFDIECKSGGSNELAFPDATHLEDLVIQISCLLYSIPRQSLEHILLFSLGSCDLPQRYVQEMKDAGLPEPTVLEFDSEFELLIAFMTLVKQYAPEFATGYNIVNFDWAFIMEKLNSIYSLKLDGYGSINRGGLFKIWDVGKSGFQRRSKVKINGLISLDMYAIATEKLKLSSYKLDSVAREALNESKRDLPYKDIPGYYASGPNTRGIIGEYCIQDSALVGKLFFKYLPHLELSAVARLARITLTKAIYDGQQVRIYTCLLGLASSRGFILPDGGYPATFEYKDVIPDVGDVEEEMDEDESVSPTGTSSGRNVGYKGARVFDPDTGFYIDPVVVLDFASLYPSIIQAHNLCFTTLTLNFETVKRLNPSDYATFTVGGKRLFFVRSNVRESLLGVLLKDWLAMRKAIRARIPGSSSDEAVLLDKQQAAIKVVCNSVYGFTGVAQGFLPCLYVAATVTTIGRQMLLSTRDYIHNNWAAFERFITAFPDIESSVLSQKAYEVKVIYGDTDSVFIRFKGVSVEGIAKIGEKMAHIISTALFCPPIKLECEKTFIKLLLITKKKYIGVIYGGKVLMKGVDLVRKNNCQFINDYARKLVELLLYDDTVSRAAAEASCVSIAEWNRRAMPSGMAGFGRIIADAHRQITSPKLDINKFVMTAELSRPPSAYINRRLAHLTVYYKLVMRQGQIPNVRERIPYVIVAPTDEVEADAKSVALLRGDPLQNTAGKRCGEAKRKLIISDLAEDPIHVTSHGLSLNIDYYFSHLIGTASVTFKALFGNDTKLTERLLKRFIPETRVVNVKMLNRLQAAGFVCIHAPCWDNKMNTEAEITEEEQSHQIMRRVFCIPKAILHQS
measured endpoint: IC50 (µM)

I. CN(CCn1nc(C(=O)NCc2ccc(Cl)cc2)c2c1CN(Cc1ccnc(F)c1)C2)C(=O)C1CCC1 [Compound 66]
II. Cn1nc(C(=O)NCc2ccc(Cl)cc2)c2c1CC(O)(CC1CCC(=O)N1)C2 (single isomer, unassigned) [Compound 140]
III. CN(CCn1nc(C(=O)NCc2ccc(Cl)cc2)c2c1CN(Cc1c(F)cncc1F)C2)C(=O)C1CCC1 [Compound 63]
IV. Cn1nc(C(=O)NCc2ccc(Cl)c(F)c2)c2c1CN(C[C@H]1CCC(=O)N1)C2 [Compound 60]
V. Cn1nc(C(=O)NCc2ccc(Cl)cc2)c2c1CC(C[C@@H]1CCC(=O)N1)C2 (single isomer, unassigned) [Compound 127]
For the compounds shown above, give the order from largest IC50 to smallest. Ranked list of labels, please, in the requested order. IV, III, I, II, V
(IV: 0.112 µM, III: 0.076 µM, I: 0.0486 µM, II: 0.0265 µM, V: 0.00972 µM)

I. Cn1nc(C(=O)NCc2ccc(Cl)cc2F)c2c1CN(C[C@H]1CCC(=O)N1)C2 [Compound 61]
II. CN1CC(n2nc(C(=O)NCc3ccc(Cl)cc3)c3c2CC(C[C@H]2CCC(=O)N2)C3)C1 (some centres unmarked) [Compound 137]
Pick one, I or II : lowest reported IC50. Refer to your chosen entry by its label in the reply. II
(II: 0.05 µM, I: 0.192 µM)

I. CCC1(Cn2nc(C(=O)NCc3ccc(Cl)cc3)c3c2CN(C[C@H]2CCC(=O)N2)C3)COC1 [Compound 40]
II. [2H]C([2H])([2H])n1nc(C(=O)NCc2ccc(Cl)cc2)c2c1CN(C[C@H]1CCC(=O)N1)C2 [Compound 59]
Lab note: check whether I or II shows the higher recorded IC50. Use the label to indicate which entry you chose. I
(I: 0.0908 µM, II: 0.0486 µM)

A. O=C1CC[C@H](CN2Cc3c(C(=O)NCc4ccc(Cl)cc4)nn(CC4(CF)COC4)c3C2)N1 [Compound 41]
B. O=C1CC[C@H](CN2Cc3c(C(=O)NCc4ccc(Cl)cc4)nn(Cc4nccs4)c3C2)N1 [Compound 48]
C. O=C1CC[C@H](CN2Cc3c(C(=O)NCc4ccc(Cl)cc4)nn(CC4CCCO4)c3C2)N1 (some centres unmarked) [Compound 29]
Ascending by IC50, please. Submit the labels in the order that the ranking request calls for. A, C, B

A. CC(C)n1nc(C(=O)NCc2ccc(Cl)cc2)c2c1CN(C[C@H]1CCC(=O)N1)C2 [Compound 35]
B. O=C(NCc1ccc(Cl)cc1)c1nn(CCNC(=O)C2CCC2)c2c1CN(Cc1ccncc1F)C2 [Compound 69]
Which is greater in IC50, the first item A or the second item B ? Kindly give the label for the entry you pick. B
(B: 0.0849 µM, A: 0.031 µM)

---

biological target: Human cytomegalovirus DNA polymerase (Human cytomegalovirus, UniProt P08546); construct: made in house; host or cells: SF21 insect cells (baculovirus vector); assay: HCMV polymerase assay (AlphaLISA); type: biochemical; details: HCMV DNA polymerase 0.2 nM, 60 minutes at 37° C.; read-out: CMV (IC50)
Sequence (P08546 whole entry): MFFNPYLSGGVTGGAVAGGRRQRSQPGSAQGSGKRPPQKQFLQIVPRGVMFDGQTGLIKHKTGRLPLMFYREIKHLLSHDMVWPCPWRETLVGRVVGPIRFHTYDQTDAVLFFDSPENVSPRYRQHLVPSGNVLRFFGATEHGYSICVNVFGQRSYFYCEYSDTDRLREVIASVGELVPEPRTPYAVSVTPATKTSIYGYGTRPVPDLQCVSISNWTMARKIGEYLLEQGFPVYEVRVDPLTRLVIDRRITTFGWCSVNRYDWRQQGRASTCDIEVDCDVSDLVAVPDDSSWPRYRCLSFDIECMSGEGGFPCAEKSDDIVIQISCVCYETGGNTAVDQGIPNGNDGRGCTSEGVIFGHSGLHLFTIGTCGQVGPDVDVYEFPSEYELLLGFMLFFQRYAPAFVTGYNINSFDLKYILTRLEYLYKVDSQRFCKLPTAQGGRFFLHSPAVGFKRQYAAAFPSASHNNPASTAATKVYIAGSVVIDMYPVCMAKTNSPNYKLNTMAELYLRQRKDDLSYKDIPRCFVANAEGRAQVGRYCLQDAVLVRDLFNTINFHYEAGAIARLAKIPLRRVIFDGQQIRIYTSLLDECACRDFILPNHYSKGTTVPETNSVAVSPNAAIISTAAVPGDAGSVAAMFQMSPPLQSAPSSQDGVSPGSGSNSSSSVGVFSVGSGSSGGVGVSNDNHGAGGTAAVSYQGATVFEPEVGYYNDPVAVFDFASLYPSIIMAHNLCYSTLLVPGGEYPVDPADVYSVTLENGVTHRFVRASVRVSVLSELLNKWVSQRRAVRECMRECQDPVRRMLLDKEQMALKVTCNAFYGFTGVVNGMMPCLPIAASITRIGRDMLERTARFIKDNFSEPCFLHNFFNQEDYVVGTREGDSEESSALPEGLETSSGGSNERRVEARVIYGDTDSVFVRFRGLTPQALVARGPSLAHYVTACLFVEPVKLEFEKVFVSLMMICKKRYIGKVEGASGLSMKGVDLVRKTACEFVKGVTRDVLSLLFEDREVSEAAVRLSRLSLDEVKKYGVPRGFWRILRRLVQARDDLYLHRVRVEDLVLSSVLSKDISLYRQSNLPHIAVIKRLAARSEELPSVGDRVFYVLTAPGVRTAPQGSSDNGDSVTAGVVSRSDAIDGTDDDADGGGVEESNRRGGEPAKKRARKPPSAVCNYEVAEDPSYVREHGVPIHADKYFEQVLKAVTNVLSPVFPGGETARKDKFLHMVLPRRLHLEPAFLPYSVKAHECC
measured endpoint: IC50 (nM)

compound: O=C1CC[C@H](CN2Cc3c(C(=O)NCc4ccc(Cl)cc4)nn([C@H]4CCCOC4)c3C2)N1
measured on: Human cytomegalovirus DNA polymerase (Human cytomegalovirus, UniProt P08546)
IC50 (nM): 129

compound: CC(C)[C@H]1c2c(c(C(=O)NCc3ccc(Cl)cc3)nn2C)CN1C(C)C1CCC(=O)N1 (single isomer, unassigned) [Compound 115]
measured on: Human cytomegalovirus DNA polymerase (Human cytomegalovirus, UniProt P08546)
IC50 (nM): 566

I. CN1CC(n2nc(C(=O)NCc3ccc(Cl)cc3)c3c2CC(C[C@H]2CCC(=O)N2)C3)C1 (stereo partly shown)
II. O=C1CC[C@H](CN2Cc3c(C(=O)NCc4ccc(Cl)cc4)nn(-c4nccs4)c3C2)N1
Which shows the larger IC50 value: I or II ? Choose, then provide that item's label. I
